List of collision cross section values.
- ASSAY PROCEDURE: collision cross section (TWIMS, N2) of ion [M-H]-; higher = larger gas-phase ion cross section
- RUN CONDITIONS: ionization: ESI negative; LC: HILIC, pH 9.0 ammonium acetate
Write the answer as a number in Å², unit excluded.

N[C@@H](Cc1c[nH]c2ccccc12)C(=O)O [L-tryptophan]	148.33

## Input Quickly give me recorded collision cross section for O=C(O)C[C@H](O)C(=O)O [Malic acid]
## Output 118.53

## Input Quickly give me recorded collision cross section for CCCCCC/C=C\CCCCCCCC(=O)O [Palmitoleic acid]
## Output 173.54

## Input Quickly give me recorded collision cross section for Cc1c[nH]c(=O)[nH]c1=O [Thymine]
## Output 120.89

----------
- ASSAY PROCEDURE: retention time on BEH HILIC column (20 min gradient, 0.4 mL/min); higher = later elution
- RUN CONDITIONS: ionization: ESI negative; LC: HILIC, pH 9.0 ammonium acetate
List of retention time on BEH HILIC column values.
Write the answer as a number in min, unit excluded.

## Input Quickly give me recorded retention time on BEH HILIC column for Nc1nc2c(ncn2[C@@H]2O[C@@H]3COP(=O)(O)O[C@H]3[C@H]2O)c(=O)[nH]1
## Output 6.9

## Input Quickly give me recorded retention time on BEH HILIC column for COc1cc(/C=C/C(=O)O)ccc1O [trans-ferulic acid]
## Output 0.9

----------
- ASSAY PROCEDURE: collision cross section (TWIMS, N2) of ion [M-H]-; higher = larger gas-phase ion cross section
- RUN CONDITIONS: ionization: ESI negative; LC: HILIC, pH 9.0 ammonium acetate
List of collision cross section values.
Write the answer as a number in Å², unit excluded.

CC(C)C(=O)O	118.84
O=C(CO)[C@@H](O)[C@H](O)[C@H](O)COP(=O)(O)O	146.38
NCCc1ccc(O)c(O)c1	130.85
C[C@H](O)C(=O)O	116.91
CCCCCCC(=O)O	135.55
OC[C@@H](O)[C@@H](O[C@H]1O[C@H](CO)[C@@H](O)[C@H](O)[C@H]1O)[C@H](O)[C@@H](O)CO	171.26

## Input Quickly give me recorded collision cross section for C[C@@H](O)CC(=O)O [3-hydroxybutyric acid]
## Output 107.41

## Input Quickly give me recorded collision cross section for Nc1ncnc2c1ncn2[C@@H]1O[C@H](COP(=O)(O)OP(=O)(O)OP(=O)(O)O)[C@@H](O)[C@H]1O
## Output 190.77

## Input Quickly give me recorded collision cross section for OC[C@H]1O[C@@](CO)(O[C@H]2O[C@H](CO)[C@@H](O)[C@H](O)[C@H]2O)[C@@H](O)[C@@H]1O
## Output 169.11

----------
- ASSAY PROCEDURE: collision cross section (TWIMS, N2) of ion [M+Na-2H]-; higher = larger gas-phase ion cross section
- RUN CONDITIONS: ionization: ESI negative; LC: HILIC, pH 9.0 ammonium acetate
VALUE KIND: collision cross section (Å²)
Write the answer as a number in Å², unit excluded.

## Input Quickly give me recorded collision cross section for C[C@@H](CCC(=O)O)CC(=O)O [3-methyladipic acid]
## Output 135.93

## Input Quickly give me recorded collision cross section for CCCCCCCC/C=C\CCCCCCCC(=O)O [Oleic acid]
## Output 184.54

## Input Quickly give me recorded collision cross section for O=C(O)Cc1cccc(O)c1 [3-hydroxyphenylacetic acid]
## Output 132.19

## Input Quickly give me recorded collision cross section for O=C(O)c1ccc(C(=O)O)o1 [2,5-furandicarboxylic acid]
## Output 129.41

## Input Quickly give me recorded collision cross section for C/C(=C\C(=O)O)CC(=O)O [3-methylglutaconic acid]
## Output 131.48
